Each record here notes measured viability, T/C.
Tested on: HUVEC/MSC spheroids viability
EXPERIMENT SUMMARY: Human HUVEC/MSC cell line growth inhibition [KRAS2];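 for viability, T/C: percent of DMSO vehicle control luminescence so 100% = untreated viability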
EXPERIMENTAL CONTEXT: second compound 1 µM; first compound 1 µM; stronger effect = lower value
Please state the figure in %; there is no need to write the unit.

Observe how each entry below is paired with its result.
- MOLECULE: "COc1cc2nccc(Oc3ccc(NC(=O)C4(C(=O)Nc5ccc(F)cc5)CC4)cc3)c2cc1OC + CC1OCC2(CCN(c3cnc(Sc4ccnc(N)c4Cl)c(N)n3)CC2)C1N"
  RESULT: 80
- MOLECULE: "O=C(c1cc(Cc2n[nH]c(=O)c3ccccc23)ccc1F)N1CCN(C(=O)C2CC2)CC1 + C=CC(=O)N1CCN(c2nc(=O)n(-c3c(C)ccnc3C(C)C)c3nc(-c4c(O)cccc4F)c(F)cc23)C(C)C1"
  RESULT: 120
- MOLECULE: "COc1cc2nccc(Oc3ccc(NC(=O)C4(C(=O)Nc5ccc(F)cc5)CC4)cc3)c2cc1OC + C=CC(=O)N1CCN(c2nc(=O)n(-c3c(C)ccnc3C(C)C)c3nc(-c4c(O)cccc4F)c(F)cc23)C(C)C1"
  RESULT: 92.4

Now look at this one.
So the reported viability, T/C for Cn1nccc1Nc1nccc(-c2cc3c(s2)C(C)(C)N(CCN2CCOCC2)C3=O)n1 + C=CC(=O)N1CCN(c2nc(=O)n(-c3c(C)ccnc3C(C)C)c3nc(-c4c(O)cccc4F)c(F)cc23)C(C)C1 , on HUVEC/MSC spheroids viability, turned out to be 90.2

----------
Test system: HUVEC/MSC spheroids viability
EXPERIMENT SUMMARY: Human HUVEC/MSC cell line growth inhibition [KRAS2];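 for viability, T/C: percent of DMSO vehicle control luminescence so 100% = untreated viability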
EXPERIMENTAL CONTEXT: second compound 0.316 µM; first compound 0.03 µM; stronger effect = lower value
A collection of compounds and their measured viability, T/C
Return type: number; implicit unit %.

Recorded results for 3 compounds are shown here.
- COMPOUND: "CC(=O)OC12COC1CC(O)C1(C)C(=O)C(O)C3=C(C)C(OC(=O)C(O)C(NC(=O)OC(C)(C)C)c4ccccc4)CC(O)(C(OC(=O)c4ccccc4)C21)C3(C)C (centres undefined) + CNCc1ccccc1-c1csc(C(C)Nc2nc(C)nc3cc(OC)c(OC)cc23)c1"
  MEASUREMENT TARGET: "HUVEC/MSC spheroids viability"
  OBSERVATION TYPE: "viability, T/C"
  UNIT LABEL: "%"
  RESULT: 56.5
- COMPOUND: "CC(=O)Nc1cccc(-n2c(=O)n(C3CC3)c(=O)c3c(Nc4ccc(I)cc4F)n(C)c(=O)c(C)c32)c1 + CC1OCC2(CCN(c3cnc(Sc4ccnc(N)c4Cl)c(N)n3)CC2)C1N"
  MEASUREMENT TARGET: "HUVEC/MSC spheroids viability"
  OBSERVATION TYPE: "viability, T/C"
  UNIT LABEL: "%"
  RESULT: 24.3
- COMPOUND: "CC(=O)OC12COC1CC(O)C1(C)C(=O)C(O)C3=C(C)C(OC(=O)C(O)C(NC(=O)OC(C)(C)C)c4ccccc4)CC(O)(C(OC(=O)c4ccccc4)C21)C3(C)C (centres undefined) + COc1cc2nc(C)nc(NC(C)c3cc(N)cc(C(F)(F)F)c3)c2cc1OC1CCOC1"
  MEASUREMENT TARGET: "HUVEC/MSC spheroids viability"
  OBSERVATION TYPE: "viability, T/C"
  UNIT LABEL: "%"
  RESULT: 44.4

# evaluate next
Fill in: HUVEC/MSC spheroids viability viability, T/C for CC(=O)Nc1cccc(-n2c(=O)n(C3CC3)c(=O)c3c(Nc4ccc(I)cc4F)n(C)c(=O)c(C)c32)c1 + C=CC(=O)N1CCN(c2nc(=O)n(-c3c(C)ccnc3C(C)C)c3nc(-c4c(O)cccc4F)c(F)cc23)C(C)C1 = 20.6

----------
Below: a set of entries, each annotated with reported viability, T/C.
System: HUVEC/MSC spheroids viability
EXPERIMENT SUMMARY: Human HUVEC/MSC cell line growth inhibition [KRAS2];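 for viability, T/C: percent of DMSO vehicle control luminescence so 100% = untreated viability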
EXPERIMENTAL CONTEXT: second compound 0.1 µM; first compound 0.316 µM; stronger effect = lower value
Provide the reading as a plain figure in %.

See these solved cases before continuing.
- MOLECULE: "COc1cc2nccc(Oc3ccc(NC(=O)C4(C(=O)Nc5ccc(F)cc5)CC4)cc3)c2cc1OC + CC1OCC2(CCN(c3cnc(Sc4ccnc(N)c4Cl)c(N)n3)CC2)C1N"
  viability, T/C [%]: 100
- MOLECULE: "O=C(c1cc(Cc2n[nH]c(=O)c3ccccc23)ccc1F)N1CCN(C(=O)C2CC2)CC1 + CC1OCC2(CCN(c3cnc(Sc4ccnc(N)c4Cl)c(N)n3)CC2)C1N"
  viability, T/C [%]: 104
- MOLECULE: "COC(=O)c1ccc2c(C(=Nc3ccc(N(C)C(=O)CN4CCN(C)CC4)cc3)c3ccccc3)c(O)[nH]c2c1 + CC1OCC2(CCN(c3cnc(Sc4ccnc(N)c4Cl)c(N)n3)CC2)C1N"
  viability, T/C [%]: 77

Kindly note the recorded viability, T/C for COC(=O)c1ccc2c(C(=Nc3ccc(N(C)C(=O)CN4CCN(C)CC4)cc3)c3ccccc3)c(O)[nH]c2c1 + COc1cc2nc(C)nc(NC(C)c3cc(N)cc(C(F)(F)F)c3)c2cc1OC1CCOC1 , which is 67.3

Value of measured viability, T/C for the entry O=C(c1cc(Cc2n[nH]c(=O)c3ccccc23)ccc1F)N1CCN(C(=O)C2CC2)CC1 + COc1cc2nc(C)nc(NC(C)c3cc(N)cc(C(F)(F)F)c3)c2cc1OC1CCOC1 : 90.5

----------
Consider the following compounds and their measured viability, T/C readings.
Tested on: HUVEC/MSC spheroids viability
EXPERIMENT SUMMARY: Human HUVEC/MSC cell line growth inhibition [KRAS2];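 for viability, T/C: percent of DMSO vehicle control luminescence so 100% = untreated viability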
EXPERIMENTAL CONTEXT: second compound 1 µM; first compound 1 µM; stronger effect = lower value
Note: unit % is implicit; provide only the numeric part.

Examples from the recorded data:
- COMPOUND: "O=C(c1cc(Cc2n[nH]c(=O)c3ccccc23)ccc1F)N1CCN(C(=O)C2CC2)CC1 + CC1OCC2(CCN(c3cnc(Sc4ccnc(N)c4Cl)c(N)n3)CC2)C1N"
  MEASUREMENT TARGET: "HUVEC/MSC spheroids viability"
  viability, T/C / %: 87.2
- COMPOUND: "COc1cc2nccc(Oc3ccc(NC(=O)C4(C(=O)Nc5ccc(F)cc5)CC4)cc3)c2cc1OC + CNCc1ccccc1-c1csc(C(C)Nc2nc(C)nc3cc(OC)c(OC)cc23)c1"
  MEASUREMENT TARGET: "HUVEC/MSC spheroids viability"
  viability, T/C / %: 97.6
- COMPOUND: "CC(C)NCC(C(=O)N1CCN(c2ncnc3c2C(C)CC3O)CC1)c1ccc(Cl)cc1 (stereo not given) + COc1cc2nc(C)nc(NC(C)c3cc(N)cc(C(F)(F)F)c3)c2cc1OC1CCOC1"
  MEASUREMENT TARGET: "HUVEC/MSC spheroids viability"
  viability, T/C / %: 59.8
- COMPOUND: "CC(C)NCC(C(=O)N1CCN(c2ncnc3c2C(C)CC3O)CC1)c1ccc(Cl)cc1 (stereo not given) + C=CC(=O)N1CCN(c2nc(=O)n(-c3c(C)ccnc3C(C)C)c3nc(-c4c(O)cccc4F)c(F)cc23)C(C)C1"
  MEASUREMENT TARGET: "HUVEC/MSC spheroids viability"
  viability, T/C / %: 71.3

Now let's try a different one.
# O=C(c1cc(Cc2n[nH]c(=O)c3ccccc23)ccc1F)N1CCN(C(=O)C2CC2)CC1 + COc1cc2nc(C)nc(NC(C)c3cc(N)cc(C(F)(F)F)c3)c2cc1OC1CCOC1 with HUVEC/MSC spheroids viability: viability, T/C is 88.8

----------
System: HUVEC/MSC spheroids viability
EXPERIMENT SUMMARY: Human HUVEC/MSC cell line growth inhibition [KRAS2]
EXPERIMENTAL CONTEXT: curve of first compound; second compound 0.03 µM
Source text: Multicellular complex tumor spheroid response to RAS pathway inhibitors in combination with a targeted agents in patient-derived cell lines with oncogenic KRAS variants from multiple cancer types A high-throughput screen of multi-cell type tumor spheroids was designed to identify active combinations of targeted small molecules and KRAS pathway inhibitors. […] Compounds. […] If the clinical Cmax for an agent had not been determined, the highest concentration tested was 10 microM. […]
pIC50: −log10 of the molar value.
OBSERVATION TYPE: pIC50

Examples with answers:
- COMPOUND: "COc1cc2nccc(Oc3ccc(NC(=O)C4(C(=O)Nc5ccc(F)cc5)CC4)cc3)c2cc1OC + C=CC(=O)N1CCN(c2nc(OCC3CCCN3C)nc3c2CCN(c2cccc4cccc(C)c24)C3)CC1CC#N"
  RESULT: 5.23
- COMPOUND: "CC(=O)OC12COC1CC(O)C1(C)C(=O)C(O)C3=C(C)C(OC(=O)C(O)C(NC(=O)OC(C)(C)C)c4ccccc4)CC(O)(C(OC(=O)c4ccccc4)C21)C3(C)C (stereo not drawn) + C=CC(=O)N1CCN(c2nc(OCC3CCCN3C)nc3c2CCN(c2cccc4cccc(C)c24)C3)CC1CC#N"
  RESULT: "> 8.02"

Summary: O=C(c1cc(Cc2n[nH]c(=O)c3ccccc23)ccc1F)N1CCN(C(=O)C2CC2)CC1 + C=CC(=O)N1CCN(c2nc(OCC3CCCN3C)nc3c2CCN(c2cccc4cccc(C)c24)C3)CC1CC#N , HUVEC/MSC spheroids viability, pIC50 = < 5.00
